- Test system: PPARg:RXRa 270nM:90nM, anti-RXR (NR concentration 270 nM, RXRa partner concentration 90 nM)
- TEST PROTOCOL: PBM binding z-score (relative to random genomic background probes); higher = stronger binding; sequences stand for … in GC…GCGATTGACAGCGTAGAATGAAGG
QUANTITY NAME: PBM binding z-score
One number for each entry.

SEQUENCE CONTENT: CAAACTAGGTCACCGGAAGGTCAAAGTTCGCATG
PBM binding z-score: 8.11
//
SEQUENCE CONTENT: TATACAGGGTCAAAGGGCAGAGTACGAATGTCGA
PBM binding z-score: 8.53
//
SEQUENCE CONTENT: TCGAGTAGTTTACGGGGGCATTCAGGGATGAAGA
PBM binding z-score: 2.83

I would be grateful if you could provide PBM binding z-score for each of the following entries.
1. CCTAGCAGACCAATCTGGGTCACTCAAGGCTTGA
2. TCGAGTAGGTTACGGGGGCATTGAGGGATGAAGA
3. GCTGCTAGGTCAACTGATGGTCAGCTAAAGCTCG
4. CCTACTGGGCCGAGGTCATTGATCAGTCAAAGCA
5. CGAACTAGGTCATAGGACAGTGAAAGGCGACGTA
6. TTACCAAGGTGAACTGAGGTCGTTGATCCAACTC
7. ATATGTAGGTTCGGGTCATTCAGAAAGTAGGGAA
8. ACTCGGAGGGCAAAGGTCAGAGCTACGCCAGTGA

A.
[2.09, 5.59, 3.35, 3.38, 7.62, 2.3, 4.12, 8.48]

I would be grateful if you could provide PBM binding z-score for each of the following entries.
1. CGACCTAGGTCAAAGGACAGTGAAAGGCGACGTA
2. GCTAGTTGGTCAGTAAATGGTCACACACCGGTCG
3. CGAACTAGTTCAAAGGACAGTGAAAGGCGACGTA

A.
[5.68, -0.00235, 3.51]

I would be grateful if you could provide PBM binding z-score for each of the following entries.
1. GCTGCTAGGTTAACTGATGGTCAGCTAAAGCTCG
2. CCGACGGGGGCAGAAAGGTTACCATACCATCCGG
3. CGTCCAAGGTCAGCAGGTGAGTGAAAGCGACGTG
4. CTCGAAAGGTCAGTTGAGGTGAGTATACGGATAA
5. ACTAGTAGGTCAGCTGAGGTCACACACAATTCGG
6. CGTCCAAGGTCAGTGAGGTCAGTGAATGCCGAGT

A.
0.209
3.06
3.7
5.13
6.54
4.07

I would be grateful if you could provide PBM binding z-score for each of the following entries.
1. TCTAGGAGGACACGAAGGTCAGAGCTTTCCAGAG
2. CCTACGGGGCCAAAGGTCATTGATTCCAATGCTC
3. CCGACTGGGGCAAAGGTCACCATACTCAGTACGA
4. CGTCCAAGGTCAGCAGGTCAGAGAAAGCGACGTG
5. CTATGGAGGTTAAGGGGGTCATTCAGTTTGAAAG
6. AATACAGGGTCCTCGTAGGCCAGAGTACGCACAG
7. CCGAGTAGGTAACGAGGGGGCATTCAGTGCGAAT

A.
1: 2.09; 2: 9.49; 3: 10; 4: 5.15; 5: 6.6; 6: -0.0515; 7: 2.41

====

Could you please report measured PBM binding z-score for the items listed next?
- Tested on: PXR homodimer (NR concentration 270 nM)
- TEST PROTOCOL: PBM binding z-score (relative to random genomic background probes); higher = stronger binding; sequences stand for … in GC…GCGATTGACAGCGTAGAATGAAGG

Reference set (3 entries):
SEQUENCE CONTENT: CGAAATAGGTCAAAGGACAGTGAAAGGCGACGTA
ASSAY SYSTEM: PXR homodimer (NR concentration 270 nM)
PBM binding z-score: -0.0747

SEQUENCE CONTENT: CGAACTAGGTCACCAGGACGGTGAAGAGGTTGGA
ASSAY SYSTEM: PXR homodimer (NR concentration 270 nM)
PBM binding z-score: -0.299

SEQUENCE CONTENT: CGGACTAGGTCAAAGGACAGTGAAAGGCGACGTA
ASSAY SYSTEM: PXR homodimer (NR concentration 270 nM)
PBM binding z-score: -0.218

I would be grateful if you could provide PBM binding z-score for each of the following entries.
1. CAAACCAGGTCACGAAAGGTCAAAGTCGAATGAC
2. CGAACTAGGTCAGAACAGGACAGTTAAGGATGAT
3. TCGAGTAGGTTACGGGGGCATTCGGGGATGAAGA
4. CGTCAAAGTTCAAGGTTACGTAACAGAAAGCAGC

A.
5.57
0.458
2
2.48

I would be grateful if you could provide PBM binding z-score for each of the following entries.
1. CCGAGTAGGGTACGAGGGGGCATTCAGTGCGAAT
2. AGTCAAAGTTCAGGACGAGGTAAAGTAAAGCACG
3. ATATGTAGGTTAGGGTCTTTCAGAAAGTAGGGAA
4. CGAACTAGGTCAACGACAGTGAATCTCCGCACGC
5. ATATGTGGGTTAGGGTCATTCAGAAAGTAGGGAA
6. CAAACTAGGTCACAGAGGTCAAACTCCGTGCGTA
7. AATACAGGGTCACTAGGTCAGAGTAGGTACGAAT
8. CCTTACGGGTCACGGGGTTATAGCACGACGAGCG

A.
[3.37, 1.28, 1.06, -0.0485, 3.66, 12.1, 1.23, 0.491]

I would be grateful if you could provide PBM binding z-score for each of the following entries.
1. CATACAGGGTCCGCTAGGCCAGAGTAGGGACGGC
2. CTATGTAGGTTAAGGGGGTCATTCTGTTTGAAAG
3. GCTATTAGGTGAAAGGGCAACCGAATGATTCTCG
4. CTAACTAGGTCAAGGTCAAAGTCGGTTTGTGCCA
5. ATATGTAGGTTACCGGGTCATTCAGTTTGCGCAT
6. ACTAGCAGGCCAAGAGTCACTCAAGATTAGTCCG

A.
-0.353
3.94
0.0465
1.89
9.95
-0.185

====

- System: LXRb homodimer (NR concentration 270 nM)
- TEST PROTOCOL: PBM binding z-score (relative to random genomic background probes); higher = stronger binding; sequences stand for … in GC…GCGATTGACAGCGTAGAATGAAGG
Answer criterion not met if PBM binding z-score is under -0.1, and criterion met if it is -0.1 or more.

Before answering, review these 6 worked examples.
SEQUENCE CONTENT: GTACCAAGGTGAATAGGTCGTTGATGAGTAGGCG
GROUP: criterion not met

SEQUENCE CONTENT: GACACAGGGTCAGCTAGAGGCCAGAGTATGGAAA
GROUP: criterion not met

SEQUENCE CONTENT: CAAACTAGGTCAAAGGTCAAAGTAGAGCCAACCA
GROUP: criterion met

SEQUENCE CONTENT: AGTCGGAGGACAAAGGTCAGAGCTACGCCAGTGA
GROUP: criterion met

SEQUENCE CONTENT: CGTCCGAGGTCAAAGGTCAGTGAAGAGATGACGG
GROUP: criterion met

SEQUENCE CONTENT: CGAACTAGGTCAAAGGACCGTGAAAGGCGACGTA
GROUP: criterion not met

Q. Hello, I need to know if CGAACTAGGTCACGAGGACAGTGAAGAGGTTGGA has measured PBM binding z-score not below -0.1. Thanks!
A. criterion not met

Q. Hello, I need to know if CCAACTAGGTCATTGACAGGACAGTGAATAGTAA has measured PBM binding z-score not below -0.1. Thanks!
A. criterion met

Q. Hello, I need to know if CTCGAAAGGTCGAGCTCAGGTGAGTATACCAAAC has measured PBM binding z-score not below -0.1. Thanks!
A. criterion not met

Q. Hello, I need to know if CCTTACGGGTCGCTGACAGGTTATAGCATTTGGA has measured PBM binding z-score not below -0.1. Thanks!
A. criterion not met

====

- Test system: PPARg DBDmut:RXRa IVT, anti-PPARg (DBD mutation: PPARg1 K132A/R137A, NR concentration 270 nM, RXRa partner concentration 90 nM)
- TEST PROTOCOL: PBM binding z-score (relative to random genomic background probes); higher = stronger binding; sequences stand for … in GC…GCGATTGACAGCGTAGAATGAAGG
QUANTITY NAME: PBM binding z-score
Give bare numbers.

Reference set (3 entries):
SEQUENCE CONTENT: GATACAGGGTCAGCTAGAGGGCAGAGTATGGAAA
RECORDED MEASUREMENT: 1.37
--
SEQUENCE CONTENT: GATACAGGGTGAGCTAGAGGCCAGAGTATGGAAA
RECORDED MEASUREMENT: -0.0983
--
SEQUENCE CONTENT: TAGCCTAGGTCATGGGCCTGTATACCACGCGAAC
RECORDED MEASUREMENT: 0.382

From here, focus on the item given below.
Q. For the sequence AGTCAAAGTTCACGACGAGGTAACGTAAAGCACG , what PBM binding z-score is on record?
A. 0.65

This collection of values is drawn from the supplement of paper PMC6555819.
